Overview of reported IC50 across a group of compounds:
# TARGET: SHP2 (Homo sapiens, UniProt Q06124)
# TEST_DESCRIPTION: SHP2 allosteric inhibitor enzyme activity assay (DiFMUP fluorescence)
# Type: biochemical
# MEASUREMENT_PARAMETERS: class symbols

{"COMPOUND": "COCCOc1cccc(C2(c3n[nH]c4nc(N5CCC6(CC5)Cc5ccccc5[C@H]6N)[nH]c(=O)c34)CC2)c1 [Example 44]", "IC50": "≤ 20 nM"}

Reported IC50, compound N[C@@H]1c2ccccc2CC12CCN(c1nc3[nH]nc(C4(c5cccc(C6CCOC6)c5)CC4)c3c(=O)[nH]1)CC2 (stereo partly drawn) [Example 39] : ____
≤ 20 nM

Reported IC50, compound N[C@@H]1c2ccccc2CC12CCN(c1nc3[nH]nc(C4(c5ccc(F)cc5)CC4)c3c(=O)[nH]1)CC2 [Example 11] : ____
≤ 20 nM

Reported IC50, compound Cc1ncc2c(n1)CC(C)(C)C=C2c1n[nH]c2nc(N3CCC4(CC3)Cc3ccccc3[C@H]4N)[nH]c(=O)c12 [Example 147] : ____
≤ 20 nM

Reported IC50, compound N[C@@H]1c2ccccc2CC12CCN(c1nc3[nH]nc(C4=CCS(=O)(=O)c5ccccc54)c3c(=O)[nH]1)CC2 [Example 180] : ____
≤ 20 nM

Reported IC50, compound CC1(C)NC=C(c2n[nH]c3nc(N4CCC5(CC4)Cc4ccccc4[C@H]5N)[nH]c(=O)c23)c2ccccc21 [Example 179] : ____
≤ 20 nM

###

# TARGET: SHP2 (Homo sapiens, UniProt Q06124)
# Sequence (Q06124 1-593): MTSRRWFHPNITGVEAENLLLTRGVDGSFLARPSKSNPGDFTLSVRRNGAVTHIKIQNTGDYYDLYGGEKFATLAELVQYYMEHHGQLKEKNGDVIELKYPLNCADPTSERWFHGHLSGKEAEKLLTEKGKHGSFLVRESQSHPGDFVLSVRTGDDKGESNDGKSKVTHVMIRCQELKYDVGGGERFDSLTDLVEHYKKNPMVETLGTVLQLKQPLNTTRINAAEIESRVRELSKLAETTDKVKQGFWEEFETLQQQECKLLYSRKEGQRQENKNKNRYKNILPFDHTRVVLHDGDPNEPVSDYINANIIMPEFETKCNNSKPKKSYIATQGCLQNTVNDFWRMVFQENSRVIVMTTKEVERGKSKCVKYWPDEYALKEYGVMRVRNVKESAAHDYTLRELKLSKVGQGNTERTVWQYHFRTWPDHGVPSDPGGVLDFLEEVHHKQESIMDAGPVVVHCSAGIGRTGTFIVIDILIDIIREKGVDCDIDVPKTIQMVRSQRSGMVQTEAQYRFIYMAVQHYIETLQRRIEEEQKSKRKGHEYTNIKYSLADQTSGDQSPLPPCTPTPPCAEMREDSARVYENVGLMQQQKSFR
# TEST_DESCRIPTION: SHP2 allosteric inhibitor enzyme activity assay (DiFMUP fluorescence)
# Type: biochemical
# MEASUREMENT_PARAMETERS: numeric values
pIC50: −log10 of the molar value.
MEASUREMENT_NAME: pIC50

// solved cases for pIC50 follow
{"SMILES_TEXT": "N[C@@H]1c2ccccc2CC12CCN(c1nc3[nH]nc(C4(c5cccs5)CC4)c3c(=O)[nH]1)CC2", "TEST_VALUE": 8.80}
{"SMILES_TEXT": "N[C@@H]1c2ccccc2CC12CCN(c1nc3[nH]nc(C4(c5ccc6c(c5)OCO6)CC4)c3c(=O)[nH]1)CC2", "TEST_VALUE": 8.57}
{"SMILES_TEXT": "N[C@@H]1c2ccccc2CC12CCN(c1nc3[nH]nc(C4(c5cccc(-n6cccn6)c5)CC4)c3c(=O)[nH]1)CC2", "TEST_VALUE": 8.51}
{"SMILES_TEXT": "CC(C)(c1ccccc1)c1n[nH]c2nc(N3CCC4(CC3)Cc3ccccc3[C@H]4N)[nH]c(=O)c12", "TEST_VALUE": 8.96}

I. N[C@@H]1c2ccccc2CC12CCN(c1nc3[nH]nc(C4(c5cccc(O)c5)CC4)c3c(=O)[nH]1)CC2
II. N#Cc1ccc2c(c1)CCC=C2c1n[nH]c2nc(N3CCC4(CC3)Cc3ccccc3[C@H]4N)[nH]c(=O)c12
For the pair I and II , which member has the lower pIC50 number? Answer = label.
I
